measured_endpoint: melting point

CCC(C)(C)c1cc(C(=O)COc2ccc(C=O)cc2OC)cc(C(C)(C)CC)c1O :: 106 to 107 °C

Field: next compound
Ask: What value of melting point has been recorded for this entry: O=C1OC(COc2ccc(Cl)cc2Cl)OC1c1ccccc1 (configuration not stated)
Reply: 105 to 107 °C

* * *

measured_endpoint: melting point

Study these solved cases before continuing.
CCCCCCCCCCCCCCCCCC(O)c1ccc(C2=NC(C)(C)CO2)c(Cl)c1 (centres undefined) :: 74 to 78 °C
O=C(Nc1ccc2c(c1)CCSCC2)OCc1ccccc1 :: 118 to 120 °C
CCCCOc1ccc(Cc2cc3c(cn2)COC3)cc1 :: 213 to 215 °C
Cc1nc2ccccc2nc1Oc1ccc(O)cc1 :: 175 to 178 °C
O=C(O)c1ccc(CN(C2CCOCC2)S(=O)(=O)c2ccc(Cl)cc2)cc1 :: 218 to 219 °C
CCS(=O)(=O)N1CCN(CCCCCCNc2cc(OC)cc3c(C)ccnc23)CC1 :: 72 to 74 °C

Ask: What value of melting point has been recorded for this entry: `COCCNCCOc1ccc(NC(=O)c2ccccc2NS(C)(=O)=O)cc1`
Reply: 164 to 165 °C

Ask: What value of melting point has been recorded for this entry: `C=CC(=O)NCc1ccc(CBr)cc1`
Reply: 167 °C

Ask: What value of melting point has been recorded for this entry: CCOC(=O)c1ccc(NC)c(C(O)c2ccccc2)c1 (centres undefined)
Reply: 132 to 135 °C
